Listing: EC50 of selected compounds
- Tested on: 786-O-Hif-Luc cells
- assayName: Luciferase assay (HIF responsive element reporter)
- cond: 24 h, read-out: Mean Luciferase EC50 (nM)

Solved cases (6 shown):
[
  {
    "smilesStructure": "N#Cc1cc(F)cc(Oc2ccc(S(=O)(=O)C(F)(F)F)c3c2CC[C@H]3O)c1",
    "EC50": "50 to 249 nM"
  },
  {
    "smilesStructure": "O=S(=O)(c1ccc(Oc2cc(F)cc(Cl)c2)c(C(F)F)c1)C(F)(F)F",
    "EC50": "250 to 1000 nM"
  },
  {
    "smilesStructure": "CS(=O)(=O)c1ccc(Oc2cc(F)cc(C#N)c2)c2c1[C@H](O)C(F)(F)C2",
    "EC50": "< 50 nM"
  },
  {
    "smilesStructure": "CS(=O)(=O)c1ccc(Oc2cc(F)cc(C#N)c2)c2c1[C@@H](O)C(F)(F)C2",
    "EC50": "> 1000 nM"
  },
  {
    "smilesStructure": "CS(=O)(=O)c1ccc(Oc2cc(F)cc(C#N)c2)c2c1[C@H](O)[C@H](F)[C@@H]2F",
    "EC50": "< 50 nM"
  },
  {
    "smilesStructure": "CS(=O)(=O)c1ccc(Oc2cc(F)cc(C#N)c2)c2c1[C@H](O)[C@@H](F)C2",
    "EC50": "250 to 1000 nM"
  }
]

Any idea what EC50 was measured for `N#Cc1cccc(Oc2ccc(S(=O)(=O)C(F)F)c3c2CC[C@H]3O)c1` ? 250 to 1000 nM

Any idea what EC50 was measured for `N#Cc1cc(F)cc(Oc2ccc(S(N)(=O)=O)c3c2[C@@H](F)C(F)(F)[C@H]3O)c1` ? < 50 nM

Any idea what EC50 was measured for `N#Cc1cc(F)cc(Oc2ccc(S(=O)(=O)C(F)(F)F)c3c2CC(F)(F)[C@H]3N)c1` ? 50 to 249 nM

Any idea what EC50 was measured for `C[C@H]1C[C@@H](O)c2c(S(=O)(=O)C(F)F)ccc(Oc3cc(F)cc(Cl)c3)c21` ? 250 to 1000 nM

Any idea what EC50 was measured for `N#Cc1cc(F)cc(Oc2ccc(S(N)(=O)=O)c3c2[C@H](F)C(F)(F)[C@H]3O)c1` ? 250 to 1000 nM
